Biological target: Amine oxidase [flavin-containing] A (Homo sapiens)
Sequence (P21397 whole entry): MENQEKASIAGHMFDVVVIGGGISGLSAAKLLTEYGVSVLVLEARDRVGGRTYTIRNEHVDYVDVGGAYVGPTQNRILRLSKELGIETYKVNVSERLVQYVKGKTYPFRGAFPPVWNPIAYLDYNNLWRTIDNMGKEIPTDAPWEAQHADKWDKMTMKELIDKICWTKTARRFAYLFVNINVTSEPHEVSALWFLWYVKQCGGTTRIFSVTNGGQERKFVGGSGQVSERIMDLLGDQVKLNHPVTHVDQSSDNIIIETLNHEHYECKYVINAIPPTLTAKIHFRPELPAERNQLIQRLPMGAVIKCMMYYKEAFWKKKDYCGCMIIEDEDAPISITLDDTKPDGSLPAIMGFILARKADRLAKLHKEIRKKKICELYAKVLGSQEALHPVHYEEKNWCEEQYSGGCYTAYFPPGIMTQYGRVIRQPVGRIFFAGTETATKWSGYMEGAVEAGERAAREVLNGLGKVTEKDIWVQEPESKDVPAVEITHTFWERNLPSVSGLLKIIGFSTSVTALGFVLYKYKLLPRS
Assay: Reversible inhibition of recombinant human MAO-A using kynuramine as substrate assessed as residual activity at 100 times IC50 preincubated for 10 mins followed by 100 times compound dilution
Parameter: Activity

[[record]]
smiles_notation = "O=C1c2ccccc2C(=O)c2c(O)c(O)cc(O)c21"
parameter = "Activity"
measurement = "63.9 to 67.2%"


---

Target: Amine oxidase [flavin-containing] B (Homo sapiens, UniProt P27338)
Sequence (P27338 whole entry): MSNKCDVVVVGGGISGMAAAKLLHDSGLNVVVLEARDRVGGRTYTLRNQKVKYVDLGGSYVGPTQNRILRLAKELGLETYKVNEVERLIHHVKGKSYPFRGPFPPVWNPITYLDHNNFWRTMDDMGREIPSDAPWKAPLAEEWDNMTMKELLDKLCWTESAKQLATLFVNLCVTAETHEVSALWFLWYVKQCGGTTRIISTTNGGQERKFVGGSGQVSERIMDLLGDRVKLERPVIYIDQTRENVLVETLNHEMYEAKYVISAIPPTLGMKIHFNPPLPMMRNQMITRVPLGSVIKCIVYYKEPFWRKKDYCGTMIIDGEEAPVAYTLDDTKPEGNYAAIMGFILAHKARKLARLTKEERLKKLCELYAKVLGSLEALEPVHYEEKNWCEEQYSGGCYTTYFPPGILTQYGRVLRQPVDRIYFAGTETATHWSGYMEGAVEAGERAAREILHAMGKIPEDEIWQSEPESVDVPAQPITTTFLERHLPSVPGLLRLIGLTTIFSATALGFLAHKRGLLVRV
Assay: Inhibition of recombinant human MAO-B using benzylamine as substrate preincubated for 15 mins
pIC50: −log10 of the molar value.
Catalogue of pIC50 readings, one per entry.
Parameter: pIC50

[[record]]
smiles_notation = "O=C1c2ccccc2C(=O)c2c(O)c(O)cc(O)c21"
measurement = "< 4.40"

[[record]]
smiles_notation = "O=C1c2ccccc2C(=O)c2c1ccc(O)c2O"
measurement = "< 4.22"

